- MEASUREMENT_TARGET: Bt sGC β1(1–197) (Bos taurus)
- Sequence (P16068 1-197): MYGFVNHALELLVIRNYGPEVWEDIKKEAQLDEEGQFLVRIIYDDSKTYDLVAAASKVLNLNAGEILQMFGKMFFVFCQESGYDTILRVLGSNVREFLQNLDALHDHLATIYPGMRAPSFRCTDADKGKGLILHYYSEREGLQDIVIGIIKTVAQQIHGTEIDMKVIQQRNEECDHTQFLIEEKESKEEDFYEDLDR
pKd: −log10 of the molar value.

# COMPOUND, pKd
measured = [
    ("[C-]#[O+] [CO]", 5.80),
]

====

- MEASUREMENT_TARGET: UniProt:O77106
- Assay type: binding

# SMILES_ENTRY, Kd [nM]
records = [
    ("Nc1nc(-c2nn(Cc3ccccc3F)c3ncccc23)ncc1C1CC1", 30),
]

====

- MEASUREMENT_TARGET: UniProt O77106
- PROTOCOL_SUMMARY: Soret band shift titration of CO-saturated protein
- Assay type: binding
Recorded Kd for the following molecules

# SMILES_ENTRY, Kd / nM
data = [
    ("Nc1nc(-c2nn(Cc3ccccc3F)c3ncccc23)ncc1C1CC1", 80),
    ("OCc1ccc(-c2nn(Cc3ccccc3)c3ccccc23)o1", 800),
]

====

Recorded pKd for the following molecules
- MEASUREMENT_TARGET: Ms sGC-NT21-CO (Manduca sexta, UniProt O77106)
pKd: −log10 of the molar value.
ASSAY_READOUT: pKd

# SMILES_ENTRY, TEST_RESULT
data = [
    ("Nc1nc(-c2nn(Cc3ccccc3F)c3ncccc23)ncc1C1CC1", 7.05),
    ("OCc1ccc(-c2nn(Cc3ccccc3)c3ccccc23)o1", 6.22),
]
